Items are presented alongside their recorded Selectivity α1β1/α2/β2.
tested on: Na,K-ATPase α2β2 isoform complex; assay: biochemical; design: species or system human; settings: ratio of Ki, Table 6
Give the value as a plain number.

{"molecule": "CC1CN(C[Si](C)(C)C)CCC(OC2C(O)CC(OC3C(O)CC(OC4CCC5(C)C(CCC6C5CC(O)C5(C)C(C7=CC(=O)OC7)CCC65O)C4)OC3C)OC2C)O1 (stereo not shown) [DTMS]", "assay system": "Na,K-ATPase α2β2 isoform complex", "reading": 7.2}
{"molecule": "CC1CN(C(C)C)CCC(OC2C(O)CC(OC3C(O)CC(OC4CCC5(C)C(CCC6C5CC(O)C5(C)C(C7=CC(=O)OC7)CCC65O)C4)OC3C)OC2C)O1 (stereo not shown) [DIP]", "assay system": "Na,K-ATPase α2β2 isoform complex", "reading": 8.9}
{"molecule": "CC1CN(C)CCC(OC2C(O)CC(OC3C(O)CC(OC4CCC5(C)C(CCC6C5CC(O)C5(C)C(C7=CC(=O)OC7)CCC65O)C4)OC3C)OC2C)O1 (stereo not shown) [DMe]", "assay system": "Na,K-ATPase α2β2 isoform complex", "reading": 5.07}
{"molecule": "CC1CN(C(C)(C)C)CCC(OC2C(O)CC(OC3C(O)CC(OC4CCC5(C)C(CCC6C5CC(O)C5(C)C(C7=CC(=O)OC7)CCC65O)C4)OC3C)OC2C)O1 (stereo not shown) [DtB]", "assay system": "Na,K-ATPase α2β2 isoform complex", "reading": 7.3}
{"molecule": "CCCN1CCC(OC2C(O)CC(OC3C(O)CC(OC4CCC5(C)C(CCC6C5CC(O)C5(C)C(C7=CC(=O)OC7)CCC65O)C4)OC3C)OC2C)OC(C)C1 (stereo not shown) [DP]", "assay system": "Na,K-ATPase α2β2 isoform complex", "reading": 8.3}
{"molecule": "CC1CN(CC(F)(F)F)CCC(OC2C(O)CC(OC3C(O)CC(OC4CCC5(C)C(CCC6C5CC(O)C5(C)C(C7=CC(=O)OC7)CCC65O)C4)OC3C)OC2C)O1 (stereo not shown) [DMeCF3]", "assay system": "Na,K-ATPase α2β2 isoform complex", "reading": 6.5}

Proceeding to the next molecule to report its Selectivity α1β1/α2/β2.
Prompt: Consider the molecule CCN1CCC(OC2C(O)CC(OC3C(O)CC(OC4CCC5(C)C(CCC6C5CC(O)C5(C)C(C7=CC(=O)OC7)CCC65O)C4)OC3C)OC2C)OC(C)C1 (stereo not shown) [DEt] and give its recorded Selectivity α1β1/α2/β2.
Completion: 8.3

----------
biological target: Na,K-ATPase α2β1 isoform complex (Homo sapiens, UniProt P50993); test: biochemical; assay type: biochemical; conditions: Ki ± S.E. α2, Table 2; α2β1
Items are presented alongside their recorded Ki.
Numbers only; they are read as nM.

Sample records with Ki:
{"molecule": "CC1CN(CC(F)(F)F)CCC(OC2C(O)CC(OC3C(O)CC(OC4CCC5(C)C(CCC6C5CC(O)C5(C)C(C7=CC(=O)OC7)CCC65O)C4)OC3C)OC2C)O1 (stereo not drawn) [DMeCF3]", "assay system": "Na,K-ATPase α2β1 isoform complex (Homo sapiens, UniProt P50993)", "reading": 44}
{"molecule": "CC1CN(O)CCC(OC2C(O)CC(OC3C(O)CC(OC4CCC5(C)C(CCC6C5CC(O)C5(C)C(C7=CC(=O)OC7)CCC65O)C4)OC3C)OC2C)O1 (stereo not drawn) [DOH]", "assay system": "Na,K-ATPase α2β1 isoform complex (Homo sapiens, UniProt P50993)", "reading": 134}
{"molecule": "CC1CN(NC(N)=O)CCC(OC2C(O)CC(OC3C(O)CC(OC4CCC5(C)C(CCC6C5CC(O)C5(C)C(C7=CC(=O)OC7)CCC65O)C4)OC3C)OC2C)O1 (stereo not drawn) [DSCar]", "assay system": "Na,K-ATPase α2β1 isoform complex (Homo sapiens, UniProt P50993)", "reading": 20}
{"molecule": "CC1CN(C(CO)C(=O)O)CCC(OC2C(O)CC(OC3C(O)CC(OC4CCC5(C)C(CCC6C5CC(O)C5(C)C(C7=CC(=O)OC7)CCC65O)C4)OC3C)OC2C)O1 (stereo not drawn) [DSer]", "assay system": "Na,K-ATPase α2β1 isoform complex (Homo sapiens, UniProt P50993)", "reading": 145}

Prompt: Consider the molecule CC1CN(CC(N)=O)CCC(OC2C(O)CC(OC3C(O)CC(OC4CCC5(C)C(CCC6C5CC(O)C5(C)C(C7=CC(=O)OC7)CCC65O)C4)OC3C)OC2C)O1 (stereo not drawn) [DGlyN] and give its recorded Ki.
Completion: 20.4

Prompt: Consider the molecule CC1CN(CC(=O)O)CCC(OC2C(O)CC(OC3CCC4(C)C(CCC5C4CC(O)C4(C)C(C6=CC(=O)OC6)CCC54O)C3)OC2C)O1 (stereo not drawn) [DbisGly] and give its recorded Ki.
Completion: 34.9

----------
Items are presented alongside their recorded Ki.
Molecular target: Na,K-ATPase α2β1 isoform complex (Homo sapiens, UniProt P50993)
Assay: biochemical
Format: biochemical
Settings: Ki ± S.E. α2, Table 2; α2β1
Protocol: Methods for transformation, culture of P. pastoris clones, protein expression of Na,K-ATPase human isoforms (α1β1, α2β1, α3β1), membrane preparation, solubilization of membranes in DDM, and purification on BD-Talon beads have been described in detail (6-9, 11, 25). […] Protein concentration was determined with BCA (B9643 Sigma). Inhibition of Na,K-ATPase activity of the detergent-soluble α1β1, α2β1, and α3β1 complexes by CG's was determined as described (6) using either the αβ or αβFXYD1 complexes. […]
Numbers only; they are read as nM.

Sample records with Ki:
{"compound": "CC1CN(C)CCC(OC2C(O)CC(OC3C(O)CC(OC4CCC5(C)C(CCC6C5CC(O)C5(C)C(C7=CC(=O)OC7)CCC65O)C4)OC3C)OC2C)O1 (stereo not drawn)", "reading": 15.6}
{"compound": "C[C@]12CC[C@H](O)C[C@H]1CC[C@@H]1[C@@H]2C[C@@H](O)[C@]2(C)[C@@H](C3=CC(=O)OC3)CC[C@]12O [Digoxigenin, digoxigenin, reference compound]", "reading": 130}

Proceeding to the next compound to report its Ki.
Prompt: Consider the compound CC1CN(C(CO)C(N)=O)CCC(OC2C(O)CC(OC3C(O)CC(OC4CCC5(C)C(CCC6C5CC(O)C5(C)C(C7=CC(=O)OC7)CCC65O)C4)OC3C)OC2C)O1 (stereo not drawn) and give its recorded Ki.
Completion: 144

----------
Items are presented alongside their recorded Selectivity α1β1/α2β3.
system: Na,K-ATPase α2β3 isoform complex; test: biochemical; parameters: species or system human; settings: ratio of Ki, Table 6

{"compound": "CCCN1CCC(OC2C(O)CC(OC3C(O)CC(OC4CCC5(C)C(CCC6C5CC(O)C5(C)C(C7=CC(=O)OC7)CCC65O)C4)OC3C)OC2C)OC(C)C1 (stereo not shown)", "reading": 8.8}
{"compound": "CC1CN(C(C)C)CCC(OC2C(O)CC(OC3C(O)CC(OC4CCC5(C)C(CCC6C5CC(O)C5(C)C(C7=CC(=O)OC7)CCC65O)C4)OC3C)OC2C)O1 (stereo not shown)", "reading": 14.4}
{"compound": "CC1CN(CC(F)(F)F)CCC(OC2C(O)CC(OC3C(O)CC(OC4CCC5(C)C(CCC6C5CC(O)C5(C)C(C7=CC(=O)OC7)CCC65O)C4)OC3C)OC2C)O1 (stereo not shown)", "reading": 9.6}

Proceeding to the next compound to report its Selectivity α1β1/α2β3.
Prompt: Param request: Selectivity α1β1/α2β3 | system Na,K-ATPase α2β3 isoform complex | item CC1CN(C)CCC(OC2C(O)CC(OC3C(O)CC(OC4CCC5(C)C(CCC6C5CC(O)C5(C)C(C7=CC(=O)OC7)CCC65O)C4)OC3C)OC2C)O1 (stereo not shown)
Completion: 9.5

----------
Items are presented alongside their recorded Selectivity α1β1/α2β3.
system: Na,K-ATPase α2β3 isoform complex; experiment: biochemical; design: species or system human; conditions: ratio of Ki, Table 6
Give the value as a plain number.

Sample records with Selectivity α1β1/α2β3:
{"molecule": "CC1CN(C(C)(C)C)CCC(OC2C(O)CC(OC3C(O)CC(OC4CCC5(C)C(CCC6C5CC(O)C5(C)C(C7=CC(=O)OC7)CCC65O)C4)OC3C)OC2C)O1 (stereo not drawn)", "assay system": "Na,K-ATPase α2β3 isoform complex", "Selectivity α1β1/α2β3": 8.2}
{"molecule": "CCN1CCC(OC2C(O)CC(OC3C(O)CC(OC4CCC5(C)C(CCC6C5CC(O)C5(C)C(C7=CC(=O)OC7)CCC65O)C4)OC3C)OC2C)OC(C)C1 (stereo not drawn)", "assay system": "Na,K-ATPase α2β3 isoform complex", "Selectivity α1β1/α2β3": 9.5}

Proceeding to the next molecule to report its Selectivity α1β1/α2β3.
Prompt: Consider the molecule CC1CN(C[Si](C)(C)C)CCC(OC2C(O)CC(OC3C(O)CC(OC4CCC5(C)C(CCC6C5CC(O)C5(C)C(C7=CC(=O)OC7)CCC65O)C4)OC3C)OC2C)O1 (stereo not drawn) and give its recorded Selectivity α1β1/α2β3.
Completion: 13.8
